These data points were gathered from patent US20100022402A1.

Biological target: T1, λD-Base display phage (gpD fused to basic aptamer [Gly-Arg]4) (bacteriophage lambda), P03712
T1 chain: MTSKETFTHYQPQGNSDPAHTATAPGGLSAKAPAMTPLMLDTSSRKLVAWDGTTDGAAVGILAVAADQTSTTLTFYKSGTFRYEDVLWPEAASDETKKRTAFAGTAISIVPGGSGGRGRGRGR
Experiment: competition: free peptide titrates λD-Acid:λD-Base co-infection (MOI 0.0025), loss of double resistant multilysogens
Where no end group is shown, it is not given here.
EXPERIMENTAL_ENDPOINT: pIC50
# pIC50 is unitless: minus log10 of the molar concentration; print number only

Prompt line: Please report the recorded pIC50 for GEGEGEGE (not fully specified) [Acidic Aptamer (free synthetic peptide [Gly-Glu]4)] .
Response line: 8.00
